Biological target: UniProt Q15858
Test: NaV flux assay, inhibition of NaV1.7
Type: cell-based
Conditions: NaV flux data, included when EP data is not available
READOUT: IC50 (µM)
Answers are plain numbers, in µM.

Some solved entries appear below for comparison.
>  <COMPOUND>
CC(C)CNS(=O)(=O)c1cc(F)c(OC[C@@H]2CNCC[C@H]2c2ccc(Cl)cc2)cc1F (relative stereo)

>  <IC50 (µM)>
4.9

$$$$
>  <COMPOUND>
O=C1C[C@@H](c2cc(F)c(F)cc2F)[C@H](COc2cc(F)c(S(=O)(=O)Nc3ncns3)cc2F)CN1 (relative stereo)

>  <IC50 (µM)>
4.49

$$$$
>  <COMPOUND>
O=S(=O)(c1cc(F)c(OC[C@@H]2CNCC[C@H]2c2ccc(F)cc2)cc1F)n1cccn1 (relative stereo)

>  <IC50 (µM)>
7.22

$$$$
>  <COMPOUND>
O=S(=O)(Nc1ncns1)c1cc(F)c(OC[C@@H]2CNCC[C@H]2c2cc(F)c(F)cc2F)cc1F (relative stereo)

>  <IC50 (µM)>
0.181

$$$$

Okay, next one:
Param readout= IC50; system= UniProt Q15858; entry= O=S(=O)(Nc1ncns1)c1cc(F)c(OC[C@@H]2CNCC[C@H]2c2ccc(F)c(C(F)F)c2)cc1F (relative stereo) ; returns value.
0.071

---

Target: NaV1.7 (Homo sapiens (Human), UniProt Q15858)
Sequence (Q15858 other isoform, or with tags, fused parts or gaps): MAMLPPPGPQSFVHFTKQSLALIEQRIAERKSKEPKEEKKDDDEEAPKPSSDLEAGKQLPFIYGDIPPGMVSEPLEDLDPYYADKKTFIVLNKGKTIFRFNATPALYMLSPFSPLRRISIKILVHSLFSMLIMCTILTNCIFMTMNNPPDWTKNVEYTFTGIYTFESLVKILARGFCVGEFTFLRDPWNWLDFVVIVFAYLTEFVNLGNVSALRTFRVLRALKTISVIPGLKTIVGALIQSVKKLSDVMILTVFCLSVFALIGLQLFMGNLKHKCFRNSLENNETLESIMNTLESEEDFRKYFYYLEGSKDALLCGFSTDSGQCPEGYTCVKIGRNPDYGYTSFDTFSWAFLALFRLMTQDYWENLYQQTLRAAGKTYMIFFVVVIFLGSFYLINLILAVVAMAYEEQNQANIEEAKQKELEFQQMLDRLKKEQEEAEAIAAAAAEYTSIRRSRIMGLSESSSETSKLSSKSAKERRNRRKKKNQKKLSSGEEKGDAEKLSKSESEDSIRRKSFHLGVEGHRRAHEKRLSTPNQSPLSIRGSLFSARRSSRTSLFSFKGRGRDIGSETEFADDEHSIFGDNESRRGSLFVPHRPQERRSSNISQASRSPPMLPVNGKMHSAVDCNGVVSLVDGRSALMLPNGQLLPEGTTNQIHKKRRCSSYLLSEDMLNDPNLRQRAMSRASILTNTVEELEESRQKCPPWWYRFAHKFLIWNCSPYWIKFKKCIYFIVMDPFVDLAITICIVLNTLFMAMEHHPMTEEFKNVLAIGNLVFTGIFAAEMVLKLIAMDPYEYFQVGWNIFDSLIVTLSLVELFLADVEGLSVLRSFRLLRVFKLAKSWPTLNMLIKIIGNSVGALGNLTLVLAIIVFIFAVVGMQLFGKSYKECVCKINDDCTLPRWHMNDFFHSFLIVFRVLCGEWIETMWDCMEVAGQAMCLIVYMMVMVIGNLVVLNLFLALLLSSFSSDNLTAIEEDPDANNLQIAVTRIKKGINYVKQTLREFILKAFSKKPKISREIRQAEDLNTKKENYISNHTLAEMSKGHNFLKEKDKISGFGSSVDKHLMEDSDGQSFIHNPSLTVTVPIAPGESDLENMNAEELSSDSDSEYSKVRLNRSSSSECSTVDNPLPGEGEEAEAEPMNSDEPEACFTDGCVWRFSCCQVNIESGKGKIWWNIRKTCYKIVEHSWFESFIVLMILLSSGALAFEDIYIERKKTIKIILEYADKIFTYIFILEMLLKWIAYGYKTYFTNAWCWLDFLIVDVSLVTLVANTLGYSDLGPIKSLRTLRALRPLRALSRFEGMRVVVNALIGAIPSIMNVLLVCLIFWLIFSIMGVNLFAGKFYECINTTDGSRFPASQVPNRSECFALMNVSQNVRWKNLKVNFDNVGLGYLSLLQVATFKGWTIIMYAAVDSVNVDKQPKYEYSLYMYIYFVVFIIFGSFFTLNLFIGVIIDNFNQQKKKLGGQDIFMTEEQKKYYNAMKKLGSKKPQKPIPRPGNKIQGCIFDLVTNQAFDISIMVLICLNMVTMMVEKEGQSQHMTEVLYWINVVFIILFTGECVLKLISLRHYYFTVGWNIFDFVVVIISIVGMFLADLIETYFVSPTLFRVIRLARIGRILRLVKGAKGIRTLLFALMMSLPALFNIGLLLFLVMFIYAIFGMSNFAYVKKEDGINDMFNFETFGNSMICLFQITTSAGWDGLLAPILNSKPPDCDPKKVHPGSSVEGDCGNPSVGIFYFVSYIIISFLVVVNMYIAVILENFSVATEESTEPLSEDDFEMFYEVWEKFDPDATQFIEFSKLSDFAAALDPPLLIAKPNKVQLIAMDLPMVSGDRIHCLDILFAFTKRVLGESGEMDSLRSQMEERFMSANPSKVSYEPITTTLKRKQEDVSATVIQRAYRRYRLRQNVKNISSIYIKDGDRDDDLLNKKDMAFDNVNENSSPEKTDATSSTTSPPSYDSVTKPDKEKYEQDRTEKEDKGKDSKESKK
Sequence (Q07699 19-218 partner): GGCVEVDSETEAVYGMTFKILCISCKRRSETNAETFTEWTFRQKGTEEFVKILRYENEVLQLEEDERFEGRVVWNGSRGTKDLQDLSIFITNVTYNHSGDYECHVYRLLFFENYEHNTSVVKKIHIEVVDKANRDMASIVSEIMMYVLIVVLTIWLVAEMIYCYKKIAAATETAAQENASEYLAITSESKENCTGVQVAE
Assay: NaV flux assay, inhibition of NaV1.7
Type: cell-based
Details: NaV flux data, included when EP data is not available
READOUT: IC50 (µM)
Numbers only, in µM.

>  <COMPOUND>
CN(c1ncns1)S(=O)(=O)c1cc(F)c(OC[C@@H]2CNCC[C@H]2c2ccc(Cl)cc2)cc1F (relative stereo) [Example 79]

>  <UNIT STRING>
µM

>  <IC50>
7.88

$$$$

Which IC50 value is on record for O=S(=O)(Nc1ncns1)c1cc(F)c(OC[C@@H]2CNCC[C@H]2c2ccc(Cl)cc2)c(F)c1 (relative stereo) [Example 81] ?
2.32

---

Biological target: UniProtKB Q15858
Assay: Patch voltage clamp electrophysiology (EP), affinity for the inactivated state of Nav1.7
Type: cell-based
Settings: HEK-293 cells expressing human Nav1.7 with β1 subunit, read-out: NaV1.7 (IC50 class)
pIC50: −log10 of the molar value.
READOUT: pIC50

>  <MOLECULE>
O=S(=O)(Nc1ccc(F)cn1)c1cc(F)c(OC[C@@H]2CNCC[C@H]2c2ccc(Cl)cc2)cc1F (relative stereo)

>  <pIC50>
> 7.00

$$$$
>  <MOLECULE>
O=S(=O)(Nc1ncccn1)c1cc(F)c(OC[C@@H]2CNCC[C@H]2c2ccc(F)cc2)cc1F (relative stereo)

>  <pIC50>
6.00 to 7.00

$$$$

Which pIC50 value is on record for N#Cc1cc(S(=O)(=O)Nc2ncns2)ccc1OC[C@@H]1CNCC[C@H]1c1ccc(Cl)cc1 (relative stereo) ?
> 7.00

---

Biological target: NaV1.7 (Homo sapiens (Human), UniProt Q15858)
Test: Patch voltage clamp electrophysiology (EP), affinity for the inactivated state of Nav1.7
Format: cell-based
Details: HEK-293 cells expressing human Nav1.7 with β1 subunit, read-out: NaV1.7 (IC50 class)
READOUT: IC50

Some solved entries appear below for comparison.
>  <COMPOUND>
CN1CC[C@H](c2ccc(Cl)cc2)[C@@H](COc2cc(F)c(S(=O)(=O)Nc3ncns3)cc2F)C1 [Example 85]

>  <IC50>
< 100 nM

$$$$
>  <COMPOUND>
O=C1C[C@@H](c2ccc(F)cc2)[C@H](COc2cc(F)c(S(=O)(=O)Nc3ncns3)cc2F)CN1 (relative stereo) [Example 87]

>  <IC50>
< 100 nM

$$$$
>  <COMPOUND>
O=S(=O)(Nc1ncns1)c1cc(F)c(OC[C@@H]2CNCC[C@H]2c2ccc(Cl)c(Cl)c2)cc1F (relative stereo) [Example 92]

>  <IC50>
< 100 nM

$$$$
>  <COMPOUND>
CC(C)(C)OC(=O)N1CC[C@@H](c2ccc(Cl)cc2)[C@H](COc2cc(F)c(S(=O)(=O)Nc3ncns3)cc2F)C1 (relative stereo) [Example 69]

>  <IC50>
100 to 1000 nM

$$$$
>  <COMPOUND>
Cc1cnc(NS(=O)(=O)c2cc(F)c(OC[C@@H]3CNCC[C@H]3c3ccc(Cl)cc3)cc2F)s1 (relative stereo) [Example 57]

>  <IC50>
100 to 1000 nM

$$$$

Okay, next one:
Which IC50 value is on record for O=S(=O)(Nc1ncns1)c1cc(F)c(OC[C@@H]2CNCC[C@H]2c2ccc(Cl)cc2)cc1F [Example 84] ?
< 100 nM
